assay: Plasma and brain exposure analysis after oral administration; assay type: in vivo; conditions: male, CDKL5-/Y, mouse, plasma, po, 5 mg/kg, CDKL5-/Y mice, oral 5 mg/kg once per day, 14 days, 24 hours after the last dose; N=6-7; read-out: Concentration in mouse plasma, Mean
Readout: concentration at 24 h (ng/mL)

In [3]: df
Out[3]:
                               smiles_input  measured_value
0  COc1cn(-c2ccc(-n3cccn3)cc2F)nc(-c2ccnn2-c2ccccc2)c1=O             4.9

----------
test: Plasma and brain exposure analysis after oral administration; format: in vivo; conditions: male, CDKL5-/Y, mouse, plasma, oral, 5 mg/kg, CDKL5-/Y mice, 24 hours after the last administration; read-out: plasma concentration in all mice vs target IC50 in vivo
Readout: concentration at 24 h

                               smiles_input  measured_value
0  COc1cn(-c2ccc(-n3cccn3)cc2F)nc(-c2ccnn2-c2ccccc2)c1=O     > 1.1 ng/mL

----------
assay: Plasma and brain exposure analysis after oral administration; format: in vivo; conditions: male, CDKL5-/Y, mouse, brain, po, 5 mg/kg, CDKL5-/Y mice, oral 5 mg/kg once per day, 14 days, 24 hours after the last dose; LLOQ 0.5; read-out: Concentration in mouse brain, individual sample
Readout: concentration at 24 h

                               smiles_input                readout  measured_value
0  COc1cn(-c2ccc(-n3cccn3)cc2F)nc(-c2ccnn2-c2ccccc2)c1=O  concentration at 24 h       36.3 ng/g
